System tested: PKD1 (Homo sapiens)
Sequence (Q15139 whole entry): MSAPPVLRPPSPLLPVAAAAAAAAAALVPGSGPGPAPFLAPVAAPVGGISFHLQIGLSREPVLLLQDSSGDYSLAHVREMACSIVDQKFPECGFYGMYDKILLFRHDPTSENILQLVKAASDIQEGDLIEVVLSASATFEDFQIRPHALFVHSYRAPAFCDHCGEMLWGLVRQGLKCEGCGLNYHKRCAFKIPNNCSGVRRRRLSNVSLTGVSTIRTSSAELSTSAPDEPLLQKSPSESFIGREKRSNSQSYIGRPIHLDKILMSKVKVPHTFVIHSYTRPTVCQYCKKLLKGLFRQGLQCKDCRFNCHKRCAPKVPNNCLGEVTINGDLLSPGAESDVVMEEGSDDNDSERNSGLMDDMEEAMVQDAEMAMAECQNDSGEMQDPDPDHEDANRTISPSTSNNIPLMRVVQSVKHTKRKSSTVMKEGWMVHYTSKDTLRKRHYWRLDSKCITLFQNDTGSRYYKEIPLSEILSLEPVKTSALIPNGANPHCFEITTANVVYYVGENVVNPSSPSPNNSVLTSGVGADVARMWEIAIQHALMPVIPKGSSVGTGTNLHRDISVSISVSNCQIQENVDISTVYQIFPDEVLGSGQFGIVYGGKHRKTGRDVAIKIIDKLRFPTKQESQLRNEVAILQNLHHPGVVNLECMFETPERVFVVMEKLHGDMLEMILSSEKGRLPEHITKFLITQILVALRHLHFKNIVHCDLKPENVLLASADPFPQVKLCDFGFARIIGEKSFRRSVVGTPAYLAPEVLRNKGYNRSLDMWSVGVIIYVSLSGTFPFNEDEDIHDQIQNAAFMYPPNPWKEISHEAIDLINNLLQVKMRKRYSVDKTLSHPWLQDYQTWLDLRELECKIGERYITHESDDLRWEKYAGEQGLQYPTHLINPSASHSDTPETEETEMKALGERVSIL
Method summary: IMAP-FP PKD1 assay
Assay type: biochemical
Measured quantity: pIC50
Just the number, please; pIC50 means minus log10 of the concentration in mol/L.

# get_value(readout= pIC50, system= PKD1 (Homo sapiens)) for Cc1ccc(S(=O)(=O)NN=C2CCNC(=O)c3oc4ccc(O)cc4c32)cc1 [kb-NB142-11]
4.42

Form field - read-out: pIC50; system: PKD1 (Homo sapiens); submitted item: Nc1ccc2[nH]c3c(c2c1)CCNC3=O [kb-NB142-08]
4.13

API: value(readout=pIC50, system=PKD1 (Homo sapiens)) for record Nc1ccc2[nH]c3c(c2c1)CCCNC3=O [kb-NB142-01]
4.33

Recorded pIC50 for O=C1NCCc2c1[nH]c1ccc(O)cc21 [kb-NB123-59] with PKD1 (Homo sapiens), please?
4.71

Return pIC50 measured with PKD1 (Homo sapiens) given this compound: O=C1NCCCc2c1oc1ccc(O)c(Cl)c21 [kb-NB77-88]
5.85

Entry C=CCc1c(O)ccc2oc3c(c12)CCCNC3=O [kb-NB96-02] , system PKD1 (Homo sapiens): what pIC50 was measured?
5.62

Query pIC50 on PKD1 (Homo sapiens) for O=C1NCCC(O)c2c1oc1ccc(O)cc21 (centres unmarked) [kb-NB123-89]
4.62

Hello, I am looking for reported pIC50 with PKD1 (Homo sapiens) for O=C1NCCCc2c1[nH]c1ccc(O)cc21 [kb-NB123-57] . Could you help?
5.67

---

As shown below, each of these compounds has a reported pIC50 value.
System tested: purified recombinant human PKD1 (Homo sapiens, UniProt Q15139)
Method summary: radiometric PKD kinase activity assay
Type: biochemical
Condition notes: read-out: IC50 radiometric PKD1
Quick note: pIC50 values are minus log10 of concentrations in mol/L.

Use the examples below as a reference point.
Give its pIC50 value. Item: Oc1ccc2sc3c(c2c1)SCCNC3 [kb-NB165-83]
4.79

Reported pIC50 for O=C1NCCc2c1[nH]c1ccc(O)cc21 [kb-NB123-59] : what is it?
5.80

Would you mind telling me what pIC50 value was observed for NCCN1CCSc2c(sc3ccc(O)cc23)C1=O [kb-NB165-75] ?
6.12

Can you share its pIC50? I mean this compound: COc1ncc2sc3c(c2n1)SCCNC3=O [kmg-NB4-23]
6.92

Any idea what its pIC50 is? The compound is C=CCc1c(O)ccc2oc3c(c12)CCCNC3=O [kb-NB96-02]
5.80

Quick one: pIC50 for O=C1NCCC(=NNc2ccccc2)c2c1oc1ccc(O)cc21 [kb-NB142-05] ?
5.95

Continuing:
What value of measured pIC50 is listed for Nc1ccc2[nH]c3c(c2c1)CCNC3=O [kb-NB142-08] ?
4.80

# pIC50 lookup, item C/C=C/c1c(O)ccc2oc3c(c12)CCCNC3=O [kb-NB96-30]
6.62

Param item = O=C1NCCCc2c1oc1ccc(O)c(Cl)c21 [kb-NB77-88] ; retrieve measured pIC50.
6.05

Query: pIC50; subject: COc1ccc2sc3c(c2c1)SCCCNC3=O [kb-NB184-02]
6.72

May I ask what pIC50 has been recorded for O=C1NCCSc2c1sc1ccc(N=C=S)cc21 [mcf292-05] ?
5.56
